biological target: T1, human ROR2 (receptor tyrosine kinase-like orphan receptor 2) (human, UniProt Q01974 34-403, limits assumed); assay: affinity ELISA on human ROR2, pH 7.4; design: unit not given here
T1 construct: Antigen of the ELISA, SPR and pH titration assays; also called hROR2
T1 sequence (Q01974 34-403 limits assumed): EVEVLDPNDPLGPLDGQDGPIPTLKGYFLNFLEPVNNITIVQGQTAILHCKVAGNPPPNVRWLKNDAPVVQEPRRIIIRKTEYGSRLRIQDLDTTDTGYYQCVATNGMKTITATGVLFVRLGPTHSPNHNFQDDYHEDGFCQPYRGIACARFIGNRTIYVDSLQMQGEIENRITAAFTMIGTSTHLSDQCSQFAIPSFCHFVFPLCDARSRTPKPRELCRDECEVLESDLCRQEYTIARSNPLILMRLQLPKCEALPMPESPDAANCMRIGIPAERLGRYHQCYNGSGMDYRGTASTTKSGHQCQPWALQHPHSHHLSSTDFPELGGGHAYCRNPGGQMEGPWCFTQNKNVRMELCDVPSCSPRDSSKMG
Assign labels as follows, please: 1 for Affinity ELISA, pH 7.4 below 1; -1 for Affinity ELISA, pH 7.4 equal to or exceeding 1.

Here's what some known entries look like.
Binder	Class Name
HC-F029E (antibody, V domains shown, CPE single point mutant of parent VH 48.6-HC-WT) VH: EVQLQQSGPELVKPGASVKISCKTSGYTETEYTMHWMKQSHRKSLEWIGGINTNNGGTGYNQKFKGKATLTVDKSSSTAYMELRSLTSEDSAVYFCARGSLYSYGNSYFDYWGQGTLVTVSS VL: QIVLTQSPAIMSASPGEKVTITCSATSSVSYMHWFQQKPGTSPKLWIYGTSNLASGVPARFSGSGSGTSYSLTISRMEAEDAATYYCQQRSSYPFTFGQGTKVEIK	1
HC-Y111T (antibody, V domains shown, CPE single point mutant of parent VH 48.6-HC-WT) VH: EVQLQQSGPELVKPGASVKISCKTSGYTFTEYTMHWMKQSHRKSLEWIGGINTNNGGTGYNQKFKGKATLTVDKSSSTAYMELRSLTSEDSAVYFCARGSLYSYGNSYFDTWGQGTLVTVSS VL: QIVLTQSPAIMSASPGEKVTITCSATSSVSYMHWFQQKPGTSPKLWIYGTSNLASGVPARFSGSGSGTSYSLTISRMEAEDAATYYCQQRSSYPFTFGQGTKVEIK	-1
HC-A097I (antibody, V domains shown, CPE single point mutant of parent VH 48.6-HC-WT) VH: EVQLQQSGPELVKPGASVKISCKTSGYTFTEYTMHWMKQSHRKSLEWIGGINTNNGGTGYNQKFKGKATLTVDKSSSTAYMELRSLTSEDSAVYFCIRGSLYSYGNSYFDYWGQGTLVTVSS VL: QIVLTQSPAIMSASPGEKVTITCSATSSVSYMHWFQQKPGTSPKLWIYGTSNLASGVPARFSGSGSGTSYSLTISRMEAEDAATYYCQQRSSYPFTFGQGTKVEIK	-1

Strictly below 1 in Affinity ELISA, pH 7.4? HC-T053E (antibody, V domains shown, CPE single point mutant of parent VH 48.6-HC-WT) VH: EVQLQQSGPELVKPGASVKISCKTSGYTFTEYTMHWMKQSHRKSLEWIGGINENNGGTGYNQKFKGKATLTVDKSSSTAYMELRSLTSEDSAVYFCARGSLYSYGNSYFDYWGQGTLVTVSS VL: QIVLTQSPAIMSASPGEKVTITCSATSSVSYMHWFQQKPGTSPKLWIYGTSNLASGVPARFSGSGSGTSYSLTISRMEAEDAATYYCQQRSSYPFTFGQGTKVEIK
1

Strictly below 1 in Affinity ELISA, pH 7.4? HC-N052L (antibody, V domains shown, CPE single point mutant of parent VH 48.6-HC-WT) VH: EVQLQQSGPELVKPGASVKISCKTSGYTFTEYTMHWMKQSHRKSLEWIGGILTNNGGTGYNQKFKGKATLTVDKSSSTAYMELRSLTSEDSAVYFCARGSLYSYGNSYFDYWGQGTLVTVSS VL: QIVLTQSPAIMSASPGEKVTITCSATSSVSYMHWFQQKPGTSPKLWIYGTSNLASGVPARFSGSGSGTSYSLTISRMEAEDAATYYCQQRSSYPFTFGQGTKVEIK
1

Data credit: patent US20250161472A1
